Kindly state growth for each of the entries shown.
- System: T-47D breast
- Test Method Notes: NCI-60 one-dose screen, 48 h (100 = growth as untreated, 0 = no growth, -100 = all killed)
- Cond: 10 µM
This is part of a sample that, as a whole, favours compounds with a hit. Of some 83,000 tested, about 20% had one in any assay.
Kindly provide the numeric value in % only, without the unit symbol.

growth reported for this molecule `S=C(Nc1ccccc1)N1CCCCC1` : 89.3

growth reported for this molecule `Nc1ccccc1C(=O)Nc1ccc(Cl)cc1Cl` : 88

growth reported for this molecule `Nc1ccc(N)c([N+](=O)[O-])c1` : 91.3

###

- Tested on: NCI-H460 lung
- Test Method Notes: NCI-60 one-dose screen, 48 h (100 = growth as untreated, 0 = no growth, -100 = all killed)
- Cond: 10 µM
The panel holds about 83,000 compounds, 20% with a hit somewhere; the sample as a whole holds those more often.
Readout: growth (%)
Kindly provide the numeric value in % only, without the unit symbol.

growth reported for this compound `Cc1cccc(C(=O)N(C(C)C)C(C)C)c1` : 99.2

growth reported for this compound COc1cccc(/C=N/NC(=S)NC2CC3CCC2C3)c1O (configuration not stated) : 3.68

growth reported for this compound CC(=O)OCC1=CC2OC(=O)C3=COC(OC4OC(CO)C(O)C(O)C4O)C1C32 (configuration not stated) : 120

growth reported for this compound CN1C(=O)CN2CCc3ccccc3C2c2cc(Cl)ccc21 (configuration not stated) : 97.5

growth reported for this compound `O=[N+]([O-])c1cccc2nsnc12` : 103

growth reported for this compound COC(=O)CCCCC1=CCC2C(=O)C=C(O)C2C1 (configuration not stated) : 105

growth reported for this compound `COc1cc2cc(c1Cl)N(C)C(=O)C[C@H](OC(=O)[C@H](C)N(C)C(C)=O)[C@]1(C)O[C@H]1[C@H](C)[C@@H]1C[C@@](O)(NC(=O)O1)[C@H](OC)C=C/C=C(\C)C2` : 2.87

growth reported for this compound `NC(=O)c1ccc(N=C(N)N=C(N)N)cc1` : 104

growth reported for this compound `COc1ccccc1NC(=O)c1cc2cc(Br)ccc2cc1O` : 2.06

growth reported for this compound `COC(=O)c1ccc(NC(=O)CCl)cc1` : 47.5

growth reported for this compound `COc1cc(/C=C(\C#N)C(=O)c2ccccc2)ccc1OCc1ccccc1` : 101

growth reported for this compound CC(=O)OCC1CCCO1 (configuration not stated) : 91.5

growth reported for this compound `CO[C@H]1C[C@@H]2CC[C@@H](C)[C@@](O)(O2)C(=O)C(=O)N2CCCC[C@H]2C(=O)O[C@H]([C@H](C)C[C@@H]2CC[C@@H](O)[C@H](OC)C2)CC(=O)[C@H](C)C=C(C)[C@@H](O)[C@@H](OC)C(=O)[C@H](C)C[C@H](C)/C=C/C=C/C=C1C` : 45.1

growth reported for this compound CC1CCCCN1C(=S)Nc1ccc(S(=O)(=O)N2CCCCC2)cc1 (configuration not stated) : 97.1

growth reported for this compound CCOC(=O)C(C#N)Cc1ccccc1 (configuration not stated) : 117

growth reported for this compound `c1cc2cccc3c4cccc5cccc(c(c1)c23)c54` : 109

growth reported for this compound `CC1=CC(C)(C)NC(=S)N1c1ccc(S(=O)(=O)O)c2cccc(S(=O)(=O)O)c12` : 110

growth reported for this compound `CSc1[nH]c(=O)ncc1F` : 106

growth reported for this compound `O=[N+]([O-])c1ccc(Cl)c(S(=O)(=O)O)c1` : 108

growth reported for this compound O=C1C=CC2=C3c4cc(O)c(O)cc4CC3(O)COC2=C1O (configuration not stated) : 89.8

growth reported for this compound `O=C(NC1CCCCC1)OCc1c(COC(=O)NC2CCCCC2)c(-c2ccc(Cl)c(Cl)c2)n2c1CCC2` : 3.73

growth reported for this compound `C/C(=N\NC(=O)c1ccccc1N)c1ccccc1O` : 23.5

growth reported for this compound `OCc1ccc(-c2ccc(-c3ccc(CO)s3)o2)s1` : -4.49

growth reported for this compound O=C(O)CCC(=O)OC(C1CO1)C(OC(=O)CCC(=O)O)C1CO1 (configuration not stated) : 103

growth reported for this compound `O=C(O)CCCCNC(=O)c1ccccc1` : 106

growth reported for this compound `c1ccc2c(N3CCCCC3)ncnc2c1` : 97.8

growth reported for this compound `O=[N+]([O-])c1ccc(-c2noc(-c3cccs3)n2)cc1` : 82.7

growth reported for this compound `CCCCNC1(C#N)CCN(Cc2ccccc2)CC1` : 110

growth reported for this compound `Cc1cc(OCCO)cc(C)c1Cl` : 114

growth reported for this compound `COc1cc(-c2ccc(NC(=O)NC3CC3)c(OC)c2)ccc1NC(=O)NC1CC1` : 16.2

growth reported for this compound CS(=O)CC1=NC(=N)N=C1CS(C)=O (configuration not stated) : 106

growth reported for this compound `COCCCNC(=O)c1nnn2c1nc(N)c1cc(Cl)ccc12` : 102

growth reported for this compound `S=c1nn[nH]c2ccccc12` : 105

growth reported for this compound `C#Cc1cccc(NC(=O)c2ccc(Cl)cc2Cl)c1` : 105

growth reported for this compound `CN(c1ccccc1)c1ncnc2c1ncn2C` : 101

growth reported for this compound `Cc1cc(C(C)(C)C)cc(C)c1Br` : 103

growth reported for this compound `NC(=O)N/N=C\c1ccco1` : 117

growth reported for this compound CCCOC(=O)C(O)c1ccccc1 (configuration not stated) : 107

growth reported for this compound `CC(=O)Cc1ccc(-c2ccccc2)cc1` : 103

growth reported for this compound `Cc1cc(N)ccc1-c1ccc(N)cc1C` : 104

growth reported for this compound CC(=O)OCC1OC(OC2=C(CC=C(C)C)C(=O)c3ccccc3C2=O)C(OC(C)=O)C(OC(C)=O)C1OC(C)=O (configuration not stated) : 34.6

growth reported for this compound `O=C(O)CCCC(=O)O` : 101
